The origin of these recorded values is patent US20230144436A1.

# Tested on: DMPK
# test details: DMPK knockdown by transfected antisense oligonucleotides in DM1 C15 myotubes at 0.5 nM and 50 nM
# Assay type: cell-based
# condition: 50 nM oligonucleotide, 72 hours
Please assign N whenever Percent DMPK Reduction is at or above 60%, and Y whenever it is below.

## Task Lab log: compare recorded Percent DMPK Reduction with 60%; is it strictly lower for 422 (GUAGUUCUCAUCCUGGAAGG; chemistry not given here) [compound 422] ?
## Result Y

## Task Same for 407 (CCAAACUUGCTCAGCAGUGU; chemistry not given here) [compound 407]
## Result Y

## Task How about this substance: 453 (CAGCAGGAUGUUGUCGGGUU; chemistry not given here) [compound 453]
## Result N

## Task Thanks! And 408 (UCGGGUUUGAUGUCCCUGUG; chemistry not given here) [compound 408] ?
## Result Y

## Task Now give it for 387 (UCGAAGUUGCAUGUGUCGGU; chemistry not given here) [compound 387] too.
## Result Y

## Task What would you report for 436 (CCACUUCAGCUGUUUCAUCC; chemistry not given here) [compound 436] ?
## Result N

## Task Now consider 392 (UGCCUGCAGCAACUCCAUCC; chemistry not given here) [compound 392] .
## Result Y

## Task Now consider 468 (CGAGAGCAGCGCAAGUGAGG; chemistry not given here) [compound 468] .
## Result Y

## Task Another: 402 (GACAAUCUCCGCCAGGUAGA; chemistry not given here) [compound 402]
## Result Y

## Task Now try 454 (GCAGAGAGAGGUGCUCCUUG; chemistry not given here) [compound 454] .
## Result N

## Task // next record 465 (GCAUCCAAAACGUGGAUUGG; chemistry not given here) [compound 465]
## Result N

## Task Continue with 464 (UCCUUGUAGUGGACGAUCUU; chemistry not given here) [compound 464]
## Result N

## Task And what about the substance 455 (UCCAGUUCCAUGGGUGUGGG; chemistry not given here) [compound 455] ?
## Result N

## Task Now consider 449 (CCUCUGCCUCGCGUAGUUGA; chemistry not given here) [compound 449] and answer again.
## Result N

## Task What do you have for 390 (UCCUGCAACUGCCGGACGUG; chemistry not given here) [compound 390] ?
## Result Y

## Task Same for 405 (CUUUGGGCAGAUGGAGGGCC; chemistry not given here) [compound 405]
## Result N

====

# System: DMPK
# test details: DMPK knockdown by transfected antisense oligonucleotides in DM1 C15 myotubes at 0.5 nM and 50 nM
# Format: cell-based
# condition: 50 nM oligonucleotide, 72 hours, qPCR, relative to vehicle control
Threshold check on Percent DMPK Reduction: at or above 60% gives 1.0, strictly below gives 0.0.

## Task I'd appreciate it if you could say whether 354 (AGACAAUAAAUACCGAGGAA; chemistry not given here) [compound 354] has Percent DMPK Reduction at least equal to 60%.
## Result 0.0

## Task Same thing, different substance: 302 (CCACGUAAUACUCCAUGACC; chemistry not given here) [compound 302]
## Result 0.0

## Task Consider next the substance 264 (AGGAUGUUGUCGGGUUUGAU; chemistry not given here) [compound 264] in the same way.
## Result 0.0

## Task // same read-out, input: 292 (GCCUCUGCCUCGCGUAGUUG; chemistry not given here) [compound 292]
## Result 1.0

## Task Then 344 (UCUGCCGCAGGGACAGCCGC; chemistry not given here) [compound 344] ?
## Result 1.0

## Task Another substance to check: 260 (CGAAUGUCCGACAGUGUCUC; chemistry not given here) [compound 260]
## Result 1.0

## Task Try this substance next: 348 (AUGAUCUUCAUGGCAUACAC; chemistry not given here) [compound 348]
## Result 0.0

====

# Tested on: DMPK
# test details: DMPK knockdown by transfected antisense oligonucleotides in DM1 C15 myotubes at 0.5 nM and 50 nM
# Format: cell-based
# condition: 0.5 nM oligonucleotide, 72 hours, qPCR, relative to vehicle control = 1.00
Can you tell me Normalized DMPK Remaining for the items I'm about to list?
Please reply with the number alone, leaving off any unit.

## Task I am curious: what Normalized DMPK Remaining value has been reported for 246 (GGACGGCCCGGCUUGCUGCC; chemistry not given here) [compound 246] ?
## Result 0.42

## Task Again, but for 320 (CCCAGCGCCCACCAGUCACA; chemistry not given here) [compound 320]
## Result 0.62

## Task Cool, now 250 (CGGAUGGCCUCCAUCUCCCG; chemistry not given here) [compound 250]
## Result 0.71

## Task Try 322 (GCUCAGGCUCUGCCGGGUGA; chemistry not given here) [compound 322] next.
## Result 0.74

## Task Item: 296 (AUCUCCGCCAGGUAGAAGCG; chemistry not given here) [compound 296]
## Result 0.58

## Task Try this substance too: 263 (GGAUGGCCUCCAUCUCCCGG; chemistry not given here) [compound 263]
## Result 0.75

## Task Moving on to the next substance: 295 (CCUUGUAGUGGACGAUCUUG; chemistry not given here) [compound 295]
## Result 0.83

## Task Input 279 (CAUCUCGGCCGGAAUCCGCU; chemistry not given here) [compound 279]
## Result 0.80

====

# System: DMPK
# test details: DMPK knockdown by transfected antisense oligonucleotides in DM1 C15 myotubes at 0.5 nM and 50 nM
# Format: cell-based
# condition: 50 nM oligonucleotide, 72 hours, relative to vehicle control = 1.00
measured attribute: Normalized DMPK Remaining
Lab note: jot the number down without any unit.

## Task What measured Normalized DMPK Remaining goes with 432 (UGCCUCGCGUAGUUGACUGG; chemistry not given here) [compound 432] ?
## Result 0.12

## Task Please do the same for 379 (CAGGUAGUUCUCAUCCUGGA; chemistry not given here) [compound 379] as well.
## Result 0.23

## Task Now give it for 461 (CGGAGACCAUCCCAGUCGAG; chemistry not given here) [compound 461] too.
## Result 0.20

## Task Further, for 386 (CUCAGUGCAUCCAAAACGUG; chemistry not given here) [compound 386] ?
## Result 0.46

====

# Tested on: DMPK
# test details: DMPK knockdown by transfected antisense oligonucleotides in DM1 C15 myotubes at 0.5 nM and 50 nM
# Assay type: cell-based
# condition: 0.5 nM oligonucleotide, 72 hours, qPCR, relative to vehicle control = 1.00
measured attribute: Normalized DMPK Remaining
The response must contain the number and no unit.

## Task Which Normalized DMPK Remaining reading was recorded for the substance 303 (CCGUUCCAUCUGCCCGCAGC; chemistry not given here) [compound 303] ?
## Result 0.68

## Task Continue with 254 (UUGUCGGGUUUGAUGUCCCU; chemistry not given here) [compound 254]
## Result 0.66

## Task Another substance to look at: 297 (CUCAGGCUCUGCCGGGUGAG; chemistry not given here) [compound 297]
## Result 0.70

## Task Next record, please: 358 (GUGUCCGGAAGUCGCCUGCU; chemistry not given here) [compound 358]
## Result 0.77

## Task What about this substance? 273 (CUGUGCACGUAGCCAAGCCG; chemistry not given here) [compound 273]
## Result 0.74

## Task What about this substance? 347 (GCUCAGCAGUGUCAGCAGGU; chemistry not given here) [compound 347]
## Result 0.71

## Task Also, 331 (GGCCUCAGCCUGGCCGAAAG; chemistry not given here) [compound 331] please.
## Result 0.86

## Task Try this substance too: 251 (CUCGGCCGGAAUCCGCUCCC; chemistry not given here) [compound 251]
## Result 0.71

====

# Test system: DMPK
# test details: DMPK knockdown by transfected antisense oligonucleotides in DM1 C15 myotubes at 0.5 nM and 50 nM
# Format: cell-based
# condition: 50 nM oligonucleotide, 72 hours
measured attribute: Percent DMPK Reduction (%)
Answer in %, number only, no unit symbol.

## Task Looking for the measured Percent DMPK Reduction of 431 (GGAGCAGGGAAAGCGCCUCC; chemistry not given here) [compound 431] , can you help?
## Result 88.35

## Task Can you handle 415 (AGGGCCUUUUAUUCGCGAGG; chemistry not given here) [compound 415] next?
## Result 66.43

## Task # iterate: 445 (GAGGGCCUUUUAUUCGCGAG; chemistry not given here) [compound 445]
## Result 62.21

## Task Check 440 (CAGGAGCAGGGAAAGCGCCU; chemistry not given here) [compound 440] too.
## Result 51.82

## Task Then this substance: 426 (CTGCAGUUUGCCCAUCCACG; chemistry not given here) [compound 426]
## Result 60.08

## Task And then 432 (UGCCUCGCGUAGUUGACUGG; chemistry not given here) [compound 432] , what is it?
## Result 88.02

## Task // query: 438 (UCUAGGGUUCAGGGAGCGCG; chemistry not given here) [compound 438]
## Result 83.22

## Task Now this one: 469 (CAGGGAAAGCGCCUCCGAUA; chemistry not given here) [compound 469]
## Result 91.59

## Task Also need 446 (AGCGGCAGAGAGAGGUGCUC; chemistry not given here) [compound 446] , thanks.
## Result 90.71

## Task Entry to check: 414 (UAGAACAUUUCAUAGGCGAA; chemistry not given here) [compound 414]
## Result 43.67

## Task Moving on to 399 (GGCACGAGACAGAACAACGG; chemistry not given here) [compound 399]
## Result 68.01

## Task Ok, now 470 (AUUUCAUAGGCGAAUACACC; chemistry not given here) [compound 470]
## Result 44.15

## Task Let us now turn to 397 (GGACAGACAAUAAAUACCGA; chemistry not given here) [compound 397]
## Result 52.51

## Task Would you mind doing 458 (GUCGGCCAGGCGGAUGUGGC; chemistry not given here) [compound 458] as well?
## Result 74.59

## Task Next substance up: 451 (CAGGAUGUUGUCGGGUUUGA; chemistry not given here) [compound 451]
## Result 79.31

## Task Same question, 406 (ACAGGUAGUUCUCAUCCUGG; chemistry not given here) [compound 406] this time
## Result 85.36

## Task Item: 401 (CUCUGCCGGGUGAGCACCUC; chemistry not given here) [compound 401]
## Result 74.36
